# target_entity: IDH1 R132H (Homo sapiens, UniProt O75874, R132H)
# Sequence (O75874 whole entry R132H): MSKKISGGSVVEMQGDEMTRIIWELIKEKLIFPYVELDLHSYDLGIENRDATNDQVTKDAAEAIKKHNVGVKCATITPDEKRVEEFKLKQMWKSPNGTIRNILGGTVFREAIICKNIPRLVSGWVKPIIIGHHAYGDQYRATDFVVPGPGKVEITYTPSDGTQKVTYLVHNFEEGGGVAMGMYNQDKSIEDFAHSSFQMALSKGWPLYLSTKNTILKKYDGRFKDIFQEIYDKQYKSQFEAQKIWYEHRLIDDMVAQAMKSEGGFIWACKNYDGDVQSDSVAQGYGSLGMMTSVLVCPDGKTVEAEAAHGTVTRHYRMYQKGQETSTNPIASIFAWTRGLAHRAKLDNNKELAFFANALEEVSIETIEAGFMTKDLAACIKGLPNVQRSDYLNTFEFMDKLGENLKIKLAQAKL
# assay_overview: IDH1 R132H enzymatic assay (NADPH depletion coupled to diaphorase/resazurin)
# Assay type: biochemical
# condition: IDH1 R132H enzymatic inhibition, IC50 class
Below: a set of entries, each annotated with reported IC50.

See these solved cases before continuing.
[[record]]
molecule = "CC(C)=Cc1c(C(=O)N2CCNCC2)cc(-c2nc(-c3ccc(Cl)cc3)cs2)c(=O)n1-c1cc(C)cnc1OC(C)C"
recorded_result = "< 0.3 µM"

[[record]]
molecule = "CCc1cccc(CC)c1-n1c(C)c(C(=O)N2CCN[C@@H](CO)C2)cc(-c2nc(-c3ccc(Cl)cc3)cs2)c1=O"
recorded_result = "< 0.3 µM"

[[record]]
molecule = "COc1cccc(C)c1-n1c2c(cc(-c3nc(-c4ccc(Cl)cc4)cs3)c1=O)C(=O)CC(C)(C)C2"
recorded_result = "1 to 5 µM"

[[record]]
molecule = "COc1ccc(OC)c(-n2c3c(cc(-n4cc(-c5ccccc5)cn4)c2=O)C(=O)CC(C)(C)C3)c1"
recorded_result = "> 20 µM"

[[record]]
molecule = "CCc1cccc(CC)c1-n1c(CC(C)C)c(C(=O)N2CCNCC2)cc(-c2ccn(-c3ccccc3)n2)c1=O"
recorded_result = "1 to 5 µM"

[[record]]
molecule = "CCc1cccc(CC)c1-n1c(C)c(C(=O)N2CCC(O)C2)cc(-c2nc(-c3ccc(Cl)cc3)cs2)c1=O (stereo not drawn)"
recorded_result = "1 to 5 µM"

[[record]]
molecule = "CCc1cccc(CC)c1-n1c2c(cc(-c3nc(C4=CCN(C)CC4)c(C)s3)c1=O)C(=O)CC(C)(C)C2"
recorded_result = "> 20 µM"

[[record]]
molecule = "CCc1cccc(CC)c1-n1c(CC(C)C)c(C(=O)NCC(O)C(F)(F)F)cc(-c2nc(-c3ccc(Cl)cc3)cs2)c1=O (stereo not drawn)"
recorded_result = "0.3 to 1 µM"


Data request: Name the recorded IC50 for COc1ccc(OC)c(-n2c3c(cc(-c4ccc(-c5ccccc5)cc4)c2=O)C(=O)CC(C)(C)C3)c1 .
Data returned: > 20 µM

Data request: Try CCc1cccc(CC)c1-n1c(C=C(C)C)c(C(=O)N2CCNC(C#N)C2)cc(-c2nc(-c3ccc(Cl)cc3)cs2)c1=O (stereo not drawn) next.
Data returned: < 0.3 µM
